Assay: in vitro
Settings: human, hela cells, % viability
Kindly supply the reported viability at 28.5 h, 10 µM values for the records listed here.
Numbers only, in %.

Worked cases, viability at 28.5 h, 10 µM given:
- compound: "COc1ccc2c(c1)C1(CC(=O)N(Cc3ccc(OC)c(OC)c3)C1=O)C(=O)N2C (centres unmarked)"
  viability at 28.5 h, 10 µM, %: 94.4
- compound: "CC(C)CCc1ccc(C#N)c(=O)[nH]1"
  viability at 28.5 h, 10 µM, %: 98.8
- compound: "CC(C)C(=O)Nc1ccc(-c2ccccc2)c2ccccc12"
  viability at 28.5 h, 10 µM, %: 101
- compound: "COCCn1c(CO)nnc1[C@H]1C[C@@H](NC(=O)c2cc(C)ccc2Cl)C1"
  viability at 28.5 h, 10 µM, %: 81.2

// next item, viability at 28.5 h, 10 µM requested
Form field: reported viability at 28.5 h, 10 µM of Cc1ccc(C(=O)NCCNS(=O)(=O)c2ccccc2)cc1
88.8
